Entries and their PBM E-score values follow.
Target: Cad1 (UniProt P24813)
Sequence: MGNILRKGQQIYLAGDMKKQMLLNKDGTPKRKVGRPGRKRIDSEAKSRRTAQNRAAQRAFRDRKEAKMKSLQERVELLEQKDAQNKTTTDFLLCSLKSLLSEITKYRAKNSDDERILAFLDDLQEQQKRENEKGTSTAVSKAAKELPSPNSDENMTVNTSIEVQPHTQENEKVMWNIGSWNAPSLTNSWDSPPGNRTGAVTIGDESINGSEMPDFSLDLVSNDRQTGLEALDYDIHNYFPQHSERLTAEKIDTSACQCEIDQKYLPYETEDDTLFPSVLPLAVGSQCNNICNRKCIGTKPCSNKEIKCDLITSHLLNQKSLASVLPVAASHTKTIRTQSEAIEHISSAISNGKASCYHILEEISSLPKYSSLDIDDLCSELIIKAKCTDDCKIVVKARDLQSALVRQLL
Assay: PBM E-score (8-mer binding enrichment) (E-score (-0.5 to 0.5)); higher = stronger / more preferred TF binding
Settings: protein concentration: 100 nM; construct: GST-full length
The full ranking holds about 33,000 sequences; the median of “E-score (-0.5 to 0.5)” is about -0.0014, and the highest 2% start at about 0.25. What follows is part of a selection rich in the highest values, with near analogues and random picks from the rest.
Quick one: just the number, no unit, thanks!

IN: Provide Cad1 (UniProt P24813) PBM E-score reading for ATTAATGG .
OUT: 0.239

IN: Provide Cad1 (UniProt P24813) PBM E-score reading for ATTAATTC .
OUT: 0.304

***
IN: Provide Cad1 (UniProt P24813) PBM E-score reading for GTGACTTA .
OUT: 0.1

IN: Provide Cad1 (UniProt P24813) PBM E-score reading for CATCAAGA .
OUT: 0.0115

IN: Provide Cad1 (UniProt P24813) PBM E-score reading for ATCAATTG .
OUT: 0.186

IN: Provide Cad1 (UniProt P24813) PBM E-score reading for TGGCGCCA .
OUT: 0.198

IN: Provide Cad1 (UniProt P24813) PBM E-score reading for CTGAAGTC .
OUT: -0.0337

---

Biological target: Cad1 (UniProt P24813)
Sequence: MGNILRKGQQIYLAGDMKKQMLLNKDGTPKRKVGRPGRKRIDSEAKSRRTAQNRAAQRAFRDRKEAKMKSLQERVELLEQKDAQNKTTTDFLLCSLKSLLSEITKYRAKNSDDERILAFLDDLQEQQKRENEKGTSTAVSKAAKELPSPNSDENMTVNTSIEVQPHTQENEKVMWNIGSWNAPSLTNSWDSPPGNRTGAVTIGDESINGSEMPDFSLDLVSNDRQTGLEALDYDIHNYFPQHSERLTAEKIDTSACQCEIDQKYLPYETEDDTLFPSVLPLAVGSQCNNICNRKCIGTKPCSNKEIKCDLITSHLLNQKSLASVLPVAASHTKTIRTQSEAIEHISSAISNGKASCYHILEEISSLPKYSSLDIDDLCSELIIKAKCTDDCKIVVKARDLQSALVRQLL
Assay: PBM E-score (8-mer binding enrichment) (E-score (-0.5 to 0.5)); higher = stronger / more preferred TF binding
Details: protein concentration: 100 nM; construct: GST-full length
Over roughly 33,000 sequences, “E-score (-0.5 to 0.5)” has its median near -0.0014; the highest 2% begin near 0.25. Many of the other results were omitted from the sample, so the highest values are more common in it than they were.
Decide by PBM E-score: equal to or exceeding 0.2 means yes, less means no.

Below are worked cases with known answers.
IN: Evaluate AACGGAAG : PBM E-score at minimum 0.2?
OUT: no

IN: Evaluate CATTCGTC : PBM E-score at minimum 0.2?
OUT: no

IN: Evaluate AATTTATC : PBM E-score at minimum 0.2?
OUT: yes

IN: Evaluate AACGGATT : PBM E-score at minimum 0.2?
OUT: yes

IN: Evaluate CCGAGTGC : PBM E-score at minimum 0.2?
OUT: no

IN: Evaluate AAATAATT : PBM E-score at minimum 0.2?
OUT: yes

IN: Evaluate AATTTGTC : PBM E-score at minimum 0.2?
OUT: yes

IN: Evaluate TACGGATA : PBM E-score at minimum 0.2?
OUT: no

***
IN: Evaluate AATTTATA : PBM E-score at minimum 0.2?
OUT: yes

IN: Evaluate TATTAAGA : PBM E-score at minimum 0.2?
OUT: no

IN: Evaluate GGTAGTAA : PBM E-score at minimum 0.2?
OUT: no

IN: Evaluate TATTAACA : PBM E-score at minimum 0.2?
OUT: yes

IN: Evaluate GATAGTAA : PBM E-score at minimum 0.2?
OUT: no
